Value source: the supplement of paper PMC5412046

Listing: area under the dose-response curve of selected compounds
- Tested on: SB.msgc-1
- assay.summary: area under the dose-response curve of % viability (trapezoidal, 11 doses) (% viability x log10 concentration); higher = less cytotoxic
- condition.info: SB.msgc-1 (sporadic gastric cancer)
Where a name gives a salt, the structure may show the parent alone.

Example cases with answers are listed next.
compound	area under the dose-response curve
N=C(N)Nc1ccc(C(=O)Oc2ccc3cc(C(=N)N)ccc3c2)cc1 [Nafamostat mesilate] (top concentration 46.0829 µM)	518
N=c1c2c(-c3ccccc3)c(-c3ccccc3)n(Cc3ccccc3)c2ncn1[C@H]1CC[C@H](O)CC1 (top concentration 46.0829 µM)	434
COc1ccc([S+](=O)([O-])Nc2cc(-c3c(O)ccc4ccccc34)c(O)c3ccccc23)cc1 [C-188-9] (top concentration 46.0829 µM)	469
CC(C)(O)Cn1c(NC(=O)c2ccc(-c3cn[nH]c3)s2)nc2cc(CN3CCOCC3)ccc21 (top concentration 46.0829 µM)	455
OC(CN1CCC(Cc2ccc(F)cc2)CC1)c1ccc(Cl)cc1 (centres undefined) [Eliprodil] (top concentration 46.0829 µM)	505

Entry C[C@@H](NC1=CC=CC=C1C(O)=O)C/2=C/C(=C\N3C(=O)/C=C(\N=C23)N4CCOCC4)C [AZD-6482] (top concentration 92.1659 µM) — recorded area under the dose-response curve = 423

Note to self: area under the dose-response curve recorded for O=C(N[C@H](CO)[C@H](O)c1ccc([N+](=O)[O-])cc1)C(Cl)Cl [Chloramphenicol] (top concentration 46.0829 µM) was 544

Per the records, this compound ( O=C1c2cccc(O)c2C(=O)c2c(O)cc(CO)cc21 [Aloe-emodin] (top concentration 46.0829 µM) ) has area under the dose-response curve equal to 402

area under the dose-response curve reported for this compound CC(C)(C)NC(=O)[C@H]1CC[C@H]2[C@@H]3CC[C@H]4NC(=O)\C=C/[C@]4(C)[C@H]3CC[C@]12C [Finasteride] (top concentration 46.0829 µM) : 362

Notebook: CC(C)(C)NCC(O)c1ccc(O)c(CO)c1 (centres undefined) [Salbutamol sulfate] (top concentration 46.0829 µM) , area under the dose-response curve read as 580

For NNC(=O)c1ccncc1 [Isoniazid] (top concentration 46.0829 µM) the compound record lists area under the dose-response curve as 570

The reported area under the dose-response curve of the compound CCC(=O)NC[C@H](Cc1ccc(OCCc2nc(-c3ccccc3)oc2C)cc1)N/C(C)=C\C(=O)c1ccc(C(F)(F)F)cc1 [GW-6471] (top concentration 46.0829 µM) was 452

Input C/C=C(/C)C(=O)O[C@H]1C(C)=C2[C@H]([C@@H]1OC(=O)CCCCCCC)[C@@](C)(OC(C)=O)C[C@H](OC(=O)CCC)[C@@]1(O)[C@H]2OC(=O)[C@@]1(C)O [Thapsigargin] (top concentration 46.0829 µM) . Output area under the dose-response curve: 268

Looking up CC(C)c1cccc(C(C)C)c1O [Propofol] (top concentration 46.0829 µM) , I found its area under the dose-response curve recorded as 529

Notebook: O=C(Cc1ccc(-c2ccc(OCCN3CCOCC3)cc2)cn1)NCc1ccccc1 [KX-01] (top concentration 46.0829 µM) , area under the dose-response curve read as 320

Measured area under the dose-response curve, Cn1cnc2c1c(=O)[nH]c(=O)n2C [Theobromine] (top concentration 46.0829 µM) : 373

Recorded result, CC(C)(O)c1cc2nc(-c3cnc(N)nc3)nc(N3CCOCC3)c2s1 [GNE-493] (top concentration 46.0829 µM) , area under the dose-response curve: 384

// C[S+](=O)([O-])c1ccc(C(=O)Nc2ccc(Cl)c(-c3ccccn3)c2)c(Cl)c1 [Vismodegib] (top concentration 46.0829 µM) : area under the dose-response curve value = 494

----------
- System: SB.msgc-1
- assay.summary: viability at highest tested concentration (MAXR) relative to DMSO; higher = less cytotoxic
- condition.info: SB.msgc-1 (sporadic gastric cancer)
Label key: yes (1) means viability under 50%; no (0) means viability of 50% or more.

compound	tested.system	class.label
N#C[C@H](O[C@@H]1O[C@H](CO[C@@H]2O[C@H](CO)[C@@H](O)[C@H](O)[C@H]2O)[C@@H](O)[C@H](O)[C@H]1O)c1ccccc1 [Amygdalin] (top concentration 46.0829 µM)	SB.msgc-1	yes (1)
O=C(O)CCNc1cc(N2CCc3ccccc3CC2)nc(-c2ccccn2)n1 [GSK-J1] (top concentration 46.0829 µM)	SB.msgc-1	no (0)
CC/1=C/N([C@@H]2C[C@@H](O)[C@H](CO)O2)C(=O)NC1=O [Telbivudine] (top concentration 46.0829 µM)	SB.msgc-1	no (0)

Consider the additional compound presented here.
# input # check: viability < 50% for Cc1cc(C[S+](=O)([O-])c2ccccc2)cc(OCc2ccc(CN3CCC[C@@H]3CO)cc2)c1 [PF-543] (top concentration 46.0829 µM)
# output yes (1)

----------
// viability lookup, one value per entry
- System: SB.msgc-1
- assay.summary: viability at highest tested concentration (MAXR) relative to DMSO; higher = less cytotoxic
- condition.info: SB.msgc-1 (sporadic gastric cancer)
Just the number please, in %, no unit attached.

compound	viability (%)
O=C1NC(=O)[C@@H](c2cn3c4c(cccc24)CCC3)[C@@H]1c1c[nH]c2ccccc12 [Tivantinib] (top concentration 46.0829 µM)	36.2
Cc1ccc([N+](=O)[O-])cc1[S+](=O)([O-])N(C)/N=C/c1cnc2ccc(Br)cn12 [PIK-75] (top concentration 46.0829 µM)	41.7

# evaluate next
Value of measured viability for the entry O=C/1NC(=O)C(=C1C2=CN=C3C=CC=C[N]23)/C4=C[N]5CCN(CC6=C5C4=CC=C6)C(=O)N7CCOCC7 [GSK3 Inhibitor] (top concentration 46.0829 µM) : 41.1

----------
- Tested on: SB.msgc-1
- assay.summary: area under the dose-response curve of % viability (trapezoidal, 11 doses) (% viability x log10 concentration); higher = less cytotoxic
- condition.info: SB.msgc-1 (sporadic gastric cancer)
Recorded area under the dose-response curve by entry
Reply briefly: the number, and no unit.

Please review the entries below; each comes with its answer.
compound	area under the dose-response curve
CC(C)OC(=O)/C1=C/N(CC(C)(C)C2=C1[NH]C3=CC=CC=C23)C(=O)C4=CC=C(F)C(=C4)F [Turofexorate isopropyl] (top concentration 46.0829 µM)	351
CC(=O)Nc1ccc(OC[C@](C)(O)C(=O)Nc2ccc([N+](=O)[O-])c(C(F)(F)F)c2)cc1 [Andarine] (top concentration 46.0829 µM)	302

Looking up CCOC(=O)C(C#N)C\1C2=CC(=CC=C2O\C(=C1C(=O)OCC)N)Br (stereo not drawn) [HA-14-1] (top concentration 46.0829 µM) , I see its area under the dose-response curve listed as 496

----------
- System: SB.mhdgc-1
- assay.summary: viability at highest tested concentration (MAXR) relative to DMSO; higher = less cytotoxic
- condition.info: SB.mhdgc-1 (hereditary c.1380delA CDH1 gastric cancer)
Please note: viability exactly at 2% is not met. Only values below 2% get met.

compound	class.label
C[C@@H]1[C@H](O)[C@@H](C)C=CC=CCCC=CC=CC=CC=C[C@H](O[C@H]2O[C@@H](C)[C@H](O)[C@@H](N)[C@H]2O)CC2O[C@](O)(C[C@@H](O)[C@H](O)CC[C@@H](O)C[C@@H](O)C[C@@H](O)CC(=O)O[C@H]1C)C[C@H](O)[C@H]2C(=O)O [Nystatin] (top concentration 46.0829 µM)	not met
CC1=C(/C=C/C(C)=C/C=C/C(C)=C/C=C/C=C(C)/C=C/C=C(C)/C=C/C2=C(C)CCCC2(C)C)C(C)(C)CCC1 [beta-Carotene] (top concentration 46.0829 µM)	not met
CN(C)CCc1ccc(O)cc1 [Hordenine] (top concentration 46.0829 µM)	not met
CC(=O)O[C@@]1(CC[C@H]2[C@@H]3\C=C(Cl)/C4=C/C(=O)[C@@H]5C[C@@H]5[C@]4(C)[C@H]3CC[C@]12C)C(C)=O [Cyproterone acetate] (top concentration 46.0829 µM)	not met

Turning now to a further record.
# input Dear colleague, could you confirm whether viability of O=C1c2ccccc2-[n+]2ccc3c([nH]c4ccccc43)c21 [Fascaplysin] (top concentration 46.0829 µM) falls below 2%? Thanks.
# output met

----------
Overview of reported viability across a group of molecules:
- Tested on: SB.mhdgc-1
- assay.summary: viability at highest tested concentration (MAXR) relative to DMSO; higher = less cytotoxic
- condition.info: SB.mhdgc-1 (hereditary c.1380delA CDH1 gastric cancer)
Output spec: scalar in %, unitless text.

Previously resolved entries follow.
In [3]: df
Out[3]:
                                   molecule  tested_system   endpoint  value
0  Nc1cc(N2CCCCC2)nc(N)[n+]1[O-] [Minoxidil] (top concentration 46.0829 µM)     SB.mhdgc-1  viability   71.2
1  Cc1noc(-c2ccc(CSCCC(=O)O)cc2)c1NC(=O)OC(C)c1ccccc1Cl (stereo not drawn) (top concentration 46.0829 µM)     SB.mhdgc-1  viability    108

We next turn to a different molecule, shown below.
Recorded viability (molecule COc1cc2c(cc1OC)CN(CCc1ccc(NC(=O)c3cc(OC)c(OC)cc3NC(=O)c3cnc4ccccc4c3)cc1)CC2 [Tariquidar] (top concentration 46.0829 µM) ): 32.1
